Data provenance: paper PMC9989926

- target: mfT1R2a/mfT1R3 (Oryzias latipes, UniProt Q2MHK2+Q2MHK5)
- Construct: gene TAS1R2a; entire coding regions, stably co-expressed with chimeric G-protein G16gust44 in Flp-In 293 cells; heterodimer; with Taste receptor type 1 member 3
- Sequence (Q2MHK2 entry or part of it): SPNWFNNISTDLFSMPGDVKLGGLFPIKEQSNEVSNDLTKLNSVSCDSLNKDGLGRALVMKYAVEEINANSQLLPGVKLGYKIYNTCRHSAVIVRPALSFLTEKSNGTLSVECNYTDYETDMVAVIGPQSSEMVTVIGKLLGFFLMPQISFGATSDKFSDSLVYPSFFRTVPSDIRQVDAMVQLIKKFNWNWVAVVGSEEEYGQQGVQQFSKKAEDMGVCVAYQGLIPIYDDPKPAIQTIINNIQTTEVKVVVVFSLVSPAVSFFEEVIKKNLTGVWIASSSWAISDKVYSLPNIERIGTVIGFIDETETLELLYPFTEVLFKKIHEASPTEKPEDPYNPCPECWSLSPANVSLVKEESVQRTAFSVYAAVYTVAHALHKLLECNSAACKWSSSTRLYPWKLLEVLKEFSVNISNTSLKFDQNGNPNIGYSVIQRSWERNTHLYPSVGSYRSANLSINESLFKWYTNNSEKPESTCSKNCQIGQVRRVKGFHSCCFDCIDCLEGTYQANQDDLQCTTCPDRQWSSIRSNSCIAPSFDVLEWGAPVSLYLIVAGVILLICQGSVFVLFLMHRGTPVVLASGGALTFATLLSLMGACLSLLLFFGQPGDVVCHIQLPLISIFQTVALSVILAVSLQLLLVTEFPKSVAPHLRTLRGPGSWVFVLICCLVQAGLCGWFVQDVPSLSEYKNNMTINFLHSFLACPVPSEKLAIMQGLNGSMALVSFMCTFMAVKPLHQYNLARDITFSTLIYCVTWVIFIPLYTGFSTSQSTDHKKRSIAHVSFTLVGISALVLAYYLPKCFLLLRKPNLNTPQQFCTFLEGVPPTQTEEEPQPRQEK
- Sequence (Q2MHK5 entry or part of it): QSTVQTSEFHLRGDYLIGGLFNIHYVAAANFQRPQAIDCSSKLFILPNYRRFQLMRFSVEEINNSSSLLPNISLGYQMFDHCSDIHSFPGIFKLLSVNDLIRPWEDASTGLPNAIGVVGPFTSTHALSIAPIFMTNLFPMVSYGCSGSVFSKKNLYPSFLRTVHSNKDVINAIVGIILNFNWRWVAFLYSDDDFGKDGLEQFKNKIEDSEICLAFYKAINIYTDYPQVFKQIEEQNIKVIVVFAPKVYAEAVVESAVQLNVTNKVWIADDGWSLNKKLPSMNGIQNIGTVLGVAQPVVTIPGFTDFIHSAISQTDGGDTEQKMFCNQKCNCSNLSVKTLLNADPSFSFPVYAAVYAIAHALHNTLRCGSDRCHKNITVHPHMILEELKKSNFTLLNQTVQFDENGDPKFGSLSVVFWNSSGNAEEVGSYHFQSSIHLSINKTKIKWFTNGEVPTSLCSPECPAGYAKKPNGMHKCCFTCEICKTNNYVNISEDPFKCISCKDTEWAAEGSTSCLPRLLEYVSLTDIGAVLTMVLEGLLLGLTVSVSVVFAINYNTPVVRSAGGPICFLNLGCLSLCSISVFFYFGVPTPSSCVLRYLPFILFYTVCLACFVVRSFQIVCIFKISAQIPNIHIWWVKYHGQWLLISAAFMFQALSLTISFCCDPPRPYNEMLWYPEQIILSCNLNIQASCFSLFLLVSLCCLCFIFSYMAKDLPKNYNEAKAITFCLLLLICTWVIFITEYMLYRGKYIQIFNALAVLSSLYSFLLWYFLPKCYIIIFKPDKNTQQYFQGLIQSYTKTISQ
- protocol_details: FLIPR Calcium […] cell-based calcium assay, FlexStation […]
Listing: EC50 of selected molecules
The reply should read as a number followed by its unit.

Result for NC(=O)CC[C@H](N)C(=O)O , tested on mfT1R2a/mfT1R3 (Oryzias latipes, UniProt Q2MHK2+Q2MHK5), EC50: 58.8 µM

Consider the additional molecule presented here.
Result for C[C@H](N)C(=O)O , tested on mfT1R2a/mfT1R3 (Oryzias latipes, UniProt Q2MHK2+Q2MHK5), EC50: 1230 µM
